Where these numbers come from: paper PMC12147445

Test: Blood routine examination
Format: in vivo, BALB/c female mice
Settings: CT26 tumor mice, i.v. every 2 d x5, day 18, no light, mean ± SD; reference 34.60–44.60
Assay endpoint: HCT (%)
Give just the numeric value; % need not be written.

Lookup result for CCCNS(=O)(=O)Nc1ncnc(OCCOc2ncc(Br)cn2)c1-c1ccc(Br)cc1 [MAC, Macitentan, reference compound] ; measured HCT: 37.4
